Hello, the source for this data is PubChem BioAssay AID248, in case you need it.

Listed next: entries and their corresponding T/C.
test system: L1210 leukemia ip in BDF1 mice, survival T/C; assay: NCI In Vivo Anticancer Drug Screen. Data for tumor model L1210 Leukemia (intraperitoneal) in B6D2F1 (BDF1) mice; conditions: endpoint: mean survival time; dose: 50.0 mg/kg/injection; schedule: Q01DX009 (ip); vehicle: saline; higher = longer survival
Toxic doses and inconclusive results are not listed.
MEASUREMENT_TYPE: T/C

{"MOLECULE": "CCOC(=O)COC", "EXPERIMENTAL_TARGET": "L1210 leukemia ip in BDF1 mice, survival T/C", "READOUT_VALUE": "100 % of control"}
{"MOLECULE": "CCOC(=O)C(=O)CC1=NC2CCCCC2N(C)C1=O (stereo not given)", "EXPERIMENTAL_TARGET": "L1210 leukemia ip in BDF1 mice, survival T/C", "READOUT_VALUE": "93 % of control"}
{"MOLECULE": "CC(C)(C)N1CC1", "EXPERIMENTAL_TARGET": "L1210 leukemia ip in BDF1 mice, survival T/C", "READOUT_VALUE": "101 % of control"}
{"MOLECULE": "CCc1c2cc(OC)c(OC)cc2cc2c3cc(OC)c(OC)cc3cc[n+]12 (tested in a mixture with another compound)", "EXPERIMENTAL_TARGET": "L1210 leukemia ip in BDF1 mice, survival T/C", "READOUT_VALUE": "123 % of control"}
{"MOLECULE": "O=C(c1ccc([N+](=O)[O-])cc1)N1C2CCCCCCC21 (stereo not given)", "EXPERIMENTAL_TARGET": "L1210 leukemia ip in BDF1 mice, survival T/C", "READOUT_VALUE": "121 % of control"}

###

Listed next: entries and their corresponding T/C.
system: L1210 leukemia ip in BDF1 mice, survival T/C; assay: NCI In Vivo Anticancer Drug Screen. Data for tumor model L1210 Leukemia (intraperitoneal) in B6D2F1 (BDF1) mice; details: endpoint: mean survival time; dose: 200.0 mg/kg/injection; schedule: Q01DX009 (ip); vehicle: Klucel (hydroxypropylcellulose) (HPC); higher = longer survival
Inconclusive results and toxic doses are left out.
MEASUREMENT_TYPE: T/C

{"COMPOUND": "O=C(NCCCl)NCC1CCCCO1 (configuration not stated)", "EXPERIMENTAL_TARGET": "L1210 leukemia ip in BDF1 mice, survival T/C", "READOUT_VALUE": "108 % of control"}
{"COMPOUND": "O=C(O)c1cc(N=C2C=CC(=C(c3ccccc3)c3ccc(Nc4ccc(Cl)c(C(=O)O)c4)cc3)C=C2)ccc1Cl", "EXPERIMENTAL_TARGET": "L1210 leukemia ip in BDF1 mice, survival T/C", "READOUT_VALUE": "97 % of control"}
{"COMPOUND": "CCCCCSP(SCCCCC)c1ccccc1", "EXPERIMENTAL_TARGET": "L1210 leukemia ip in BDF1 mice, survival T/C", "READOUT_VALUE": "94 % of control"}
{"COMPOUND": "O=C(NC(=S)Nc1cccc(Cl)c1)c1ccccc1", "EXPERIMENTAL_TARGET": "L1210 leukemia ip in BDF1 mice, survival T/C", "READOUT_VALUE": "113 % of control"}
{"COMPOUND": "O=C(c1ccccc1)C(CBr)C(Br)c1ccccc1 (configuration not stated)", "EXPERIMENTAL_TARGET": "L1210 leukemia ip in BDF1 mice, survival T/C", "READOUT_VALUE": "101 % of control"}
{"COMPOUND": "NC(=S)NNC(=S)S", "EXPERIMENTAL_TARGET": "L1210 leukemia ip in BDF1 mice, survival T/C", "READOUT_VALUE": "98 % of control"}
{"COMPOUND": "CNC(=O)Nc1ccc(OC)cc1", "EXPERIMENTAL_TARGET": "L1210 leukemia ip in BDF1 mice, survival T/C", "READOUT_VALUE": "100 % of control"}

###

Listed next: entries and their corresponding T/C.
Tested on: L1210 leukemia ip in BDF1 mice, survival T/C
Assay: NCI In Vivo Anticancer Drug Screen. Data for tumor model L1210 Leukemia (intraperitoneal) in B6D2F1 (BDF1) mice
Details: endpoint: mean survival time; dose: 200.0 mg/kg/injection; schedule: Q04DX003 (ip); vehicle: Klucel (hydroxypropylcellulose) (HPC); higher = longer survival
Procedure: The antitumor activity of compounds was measured in mice bearing transplantable tumors. Survival or tumor size were measured and the results are expressed as the measurement made in the treated group (T) divided by the measurement made in the vehicle treated control group (C). The tumor model used in this assay is L1210 Leukemia (intraperitoneal) in B6D2F1 (BDF1) mice
Inconclusive results and toxic doses are left out.
MEASUREMENT_TYPE: T/C

{"COMPOUND": "CSC(=Nc1ccccc1)N(C)c1ccccc1", "MEASUREMENT_TYPE": "T/C", "READOUT_VALUE": "86 % of control"}
{"COMPOUND": "CSCCC(C#N)(CCN(C)C)c1ccccc1 (stereo not given)", "MEASUREMENT_TYPE": "T/C", "READOUT_VALUE": "98 % of control"}
{"COMPOUND": "O=C(O)c1cccc(NC(=O)C(F)(F)F)c1", "MEASUREMENT_TYPE": "T/C", "READOUT_VALUE": "108 % of control"}
{"COMPOUND": "NC(N)=NC(N)=Nc1ccccc1Br", "MEASUREMENT_TYPE": "T/C", "READOUT_VALUE": "110 % of control"}
{"COMPOUND": "COc1ccc(OC(=O)Nc2ccccc2Cl)cc1", "MEASUREMENT_TYPE": "T/C", "READOUT_VALUE": "104 % of control"}
{"COMPOUND": "Cc1cc(Cl)ccc1NC(=O)C(c1ccccc1)c1ccccc1", "MEASUREMENT_TYPE": "T/C", "READOUT_VALUE": "95 % of control"}
{"COMPOUND": "COc1cc(OC)c(N=Cc2ccc([N+](=O)[O-])s2)cc1Cl", "MEASUREMENT_TYPE": "T/C", "READOUT_VALUE": "101 % of control"}
{"COMPOUND": "CC(=O)CC(=O)Nc1ccccn1", "MEASUREMENT_TYPE": "T/C", "READOUT_VALUE": "101 % of control"}
{"COMPOUND": "O=C(Oc1ccccc1C(=O)O)c1ccccc1O", "MEASUREMENT_TYPE": "T/C", "READOUT_VALUE": "114 % of control"}
{"COMPOUND": "CSc1nc(NC(=O)CCl)cc(=O)[nH]1", "MEASUREMENT_TYPE": "T/C", "READOUT_VALUE": "98 % of control"}
{"COMPOUND": "COc1cc2c(cc1O)CCCCC2=O", "MEASUREMENT_TYPE": "T/C", "READOUT_VALUE": "102 % of control"}
{"COMPOUND": "CN(C1=NS(=O)(=O)N=C(N(C)c2ccccc2)O1)c1ccccc1", "MEASUREMENT_TYPE": "T/C", "READOUT_VALUE": "102 % of control"}
{"COMPOUND": "Cc1ccc(OCCOc2ccc([N+](=O)[O-])cc2)cc1", "MEASUREMENT_TYPE": "T/C", "READOUT_VALUE": "93 % of control"}
{"COMPOUND": "Cc1cc([N+](=O)[O-])ccc1NC(=O)Nc1cccc(F)c1", "MEASUREMENT_TYPE": "T/C", "READOUT_VALUE": "95 % of control"}
{"COMPOUND": "CN(C)c1ccc2cc(S(=O)(=O)O)cc(O)c2c1", "MEASUREMENT_TYPE": "T/C", "READOUT_VALUE": "95 % of control"}
{"COMPOUND": "Cc1ccc(C(=O)Nc2ccc([N+](=O)[O-])cc2)cc1", "MEASUREMENT_TYPE": "T/C", "READOUT_VALUE": "100 % of control"}
{"COMPOUND": "CNC(=O)Nc1ccc(OC)cc1", "MEASUREMENT_TYPE": "T/C", "READOUT_VALUE": "107 % of control"}
{"COMPOUND": "Cc1cc(Cl)nc(Cl)c1C#N", "MEASUREMENT_TYPE": "T/C", "READOUT_VALUE": "89 % of control"}
{"COMPOUND": "O=C(NCCCl)Nc1ccccc1", "MEASUREMENT_TYPE": "T/C", "READOUT_VALUE": "104 % of control"}
{"COMPOUND": "CCC(=O)Nc1cccc(C)c1C", "MEASUREMENT_TYPE": "T/C", "READOUT_VALUE": "102 % of control"}
